Assay: Oral bioavailability in rat at 5 mg/kg
Format: ADME, organism-based
Settings: in vivo
PARAMETER_MEASURED: bioavailability (%)
Report the figure in % without appending any unit label.

GET /value?item= `CC(C)CNc1nc(-c2ccc(S(C)(=O)=O)cc2)cc(C(F)(F)F)n1` &field=bioavailability returns 107

----------
Measured clearance, listed per entry for reference.
Assay: Blood clearance in rat at 1 mg/kg/hr, iv
Assay type: ADME, organism-based
Set-up: route intravenous
Details: whole blood
Be sure to follow the number with its unit.

molecular_string=CC(C)CNc1nc(-c2ccc(S(C)(=O)=O)cc2)cc(C(F)(F)F)n1 recorded_value="10 mL/min/kg"

Now look at this entry.
GET /value?item= `CCCCOc1nc(-c2ccc(S(C)(=O)=O)cc2)cc(C(F)(F)F)n1` &field=clearance returns 24 mL/min/kg

----------
Measured IC50, listed per entry for reference.
Molecular target: Prostaglandin G/H synthase 1 (Homo sapiens)
Sequence (P23219 whole entry): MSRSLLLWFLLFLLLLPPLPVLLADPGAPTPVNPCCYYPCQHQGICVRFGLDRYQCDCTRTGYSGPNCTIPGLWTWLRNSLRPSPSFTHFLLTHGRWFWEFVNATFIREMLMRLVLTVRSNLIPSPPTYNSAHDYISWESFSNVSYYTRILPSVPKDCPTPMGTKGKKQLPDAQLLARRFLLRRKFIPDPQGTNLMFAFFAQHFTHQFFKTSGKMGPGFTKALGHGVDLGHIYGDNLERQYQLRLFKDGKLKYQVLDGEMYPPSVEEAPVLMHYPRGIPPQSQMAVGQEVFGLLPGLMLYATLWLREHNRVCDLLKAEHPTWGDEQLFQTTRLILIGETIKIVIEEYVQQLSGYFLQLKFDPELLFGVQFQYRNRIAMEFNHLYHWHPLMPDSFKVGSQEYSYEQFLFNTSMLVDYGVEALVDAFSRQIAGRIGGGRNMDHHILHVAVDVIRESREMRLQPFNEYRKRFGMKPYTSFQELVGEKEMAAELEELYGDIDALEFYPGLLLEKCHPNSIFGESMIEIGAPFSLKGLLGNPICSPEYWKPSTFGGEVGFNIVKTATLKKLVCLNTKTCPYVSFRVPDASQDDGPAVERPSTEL
Assay: biochemical
Format: cell-based, COS

molecular_string=CS(=O)(=O)c1ccc(-c2cc(C(F)(F)F)nc(NCC3CCOCC3)n2)cc1 recorded_value="100 µM"
molecular_string=CS(=O)(=O)c1ccc(-c2cc(C(=O)O)nc(NC3CCCCC3)n2)cc1 recorded_value="> 100 µM"
molecular_string=Cc1ccc(N(C)c2nc(-c3ccc(S(C)(=O)=O)cc3)cc(C(F)(F)F)n2)cc1 recorded_value="> 74.2 µM"
molecular_string=Cc1ccc(CNc2nc(-c3ccc(S(C)(=O)=O)cc3)cc(C(F)(F)F)n2)cc1 recorded_value="> 100 µM"

GET /value?item= `CS(=O)(=O)c1ccc(-c2cc(C(F)(F)F)nc(NCc3ccccc3)n2)cc1` &field=IC50 returns > 100 µM

GET /value?item= `CS(=O)(=O)c1ccc(-c2cc(C(F)(F)F)nc(Nc3ccc(F)cc3)n2)cc1` &field=IC50 returns > 65.8 µM

----------
Target: Prostaglandin G/H synthase 2 (Homo sapiens)
Sequence (P35354 whole entry): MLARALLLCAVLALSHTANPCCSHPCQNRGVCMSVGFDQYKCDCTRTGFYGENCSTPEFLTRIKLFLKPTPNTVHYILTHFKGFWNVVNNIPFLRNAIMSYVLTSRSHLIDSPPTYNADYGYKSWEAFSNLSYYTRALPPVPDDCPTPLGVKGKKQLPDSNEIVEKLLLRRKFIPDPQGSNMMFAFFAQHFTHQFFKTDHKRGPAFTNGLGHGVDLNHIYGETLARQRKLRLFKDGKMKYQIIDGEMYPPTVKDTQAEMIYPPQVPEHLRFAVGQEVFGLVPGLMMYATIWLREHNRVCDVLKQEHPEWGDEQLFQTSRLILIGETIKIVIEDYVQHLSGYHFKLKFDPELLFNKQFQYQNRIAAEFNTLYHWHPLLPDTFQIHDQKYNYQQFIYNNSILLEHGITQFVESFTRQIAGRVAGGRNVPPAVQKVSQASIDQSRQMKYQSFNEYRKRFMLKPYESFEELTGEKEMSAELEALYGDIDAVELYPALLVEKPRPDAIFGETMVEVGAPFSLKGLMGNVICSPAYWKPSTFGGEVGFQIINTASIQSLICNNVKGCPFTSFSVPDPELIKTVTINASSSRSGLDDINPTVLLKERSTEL
Type: cell-based, COS
Values of IC50 strictly less than 5 nM map to true (1), and values of at least 5 nM map to false (0).

Known results for molecules:
molecular_string=Cc1ccc(Nc2nc(-c3ccc(S(C)(=O)=O)cc3)cc(C(F)(F)F)n2)cc1 assigned_label="false (0)"
molecular_string=CS(=O)(=O)c1ccc(-c2cc(C(N)=O)nc(NC3CCCCC3)n2)cc1 assigned_label="false (0)"
molecular_string=CS(=O)(=O)c1ccc(-c2cc(C(F)(F)F)nc(NC3CCNCC3)n2)cc1 assigned_label="false (0)"
molecular_string=CS(=O)(=O)c1ccc(-c2cc(OCC(F)(F)F)nc(NC3CCCCC3)n2)cc1 assigned_label="false (0)"
molecular_string=CS(=O)(=O)c1ccc(-c2cc(C(=O)O)nc(NC3CCCCC3)n2)cc1 assigned_label="false (0)"

(Q) API: query returns whether the molecule falls strictly under 5 nM in IC50. Query: `NS(=O)(=O)c1ccc(-c2cc(C(F)(F)F)nc(NC3CCCCC3)n2)cc1`
(A) true (1)

(Q) API: query returns whether the molecule falls strictly under 5 nM in IC50. Query: `Cc1ccc(N(C)c2nc(-c3ccc(S(C)(=O)=O)cc3)cc(C(F)(F)F)n2)cc1`
(A) true (1)

(Q) API: query returns whether the molecule falls strictly under 5 nM in IC50. Query: `CC(C)CNc1nc(-c2ccc(S(C)(=O)=O)cc2)cc(C(F)(F)F)n1`
(A) true (1)

(Q) API: query returns whether the molecule falls strictly under 5 nM in IC50. Query: `CS(=O)(=O)c1ccc(-c2cc(C(F)(F)F)nc(N)n2)cc1`
(A) false (0)

(Q) API: query returns whether the molecule falls strictly under 5 nM in IC50. Query: `CCCCNc1nc(-c2ccc(S(C)(=O)=O)cc2)cc(C(F)(F)F)n1`
(A) true (1)

(Q) API: query returns whether the molecule falls strictly under 5 nM in IC50. Query: `CS(=O)(=O)c1ccc(-c2ccnc(NC3CCCCC3)n2)cc1`
(A) false (0)

(Q) API: query returns whether the molecule falls strictly under 5 nM in IC50. Query: `CCCCNc1nc(-c2ccc(S(N)(=O)=O)cc2)cc(C(F)(F)F)n1`
(A) true (1)

(Q) API: query returns whether the molecule falls strictly under 5 nM in IC50. Query: `CS(=O)(=O)c1ccc(-c2cc(N)nc(NC3CCCCC3)n2)cc1`
(A) false (0)

(Q) API: query returns whether the molecule falls strictly under 5 nM in IC50. Query: `Cc1c(-c2ccc(S(C)(=O)=O)cc2)nc(NC2CCCCC2)nc1C(F)(F)F`
(A) false (0)

(Q) API: query returns whether the molecule falls strictly under 5 nM in IC50. Query: `CS(=O)(=O)c1ccc(-c2cc(C(F)(F)F)nc(Nc3ccc(F)cc3)n2)cc1`
(A) false (0)
